system: HT-29; experiment: Growth inhibition of human HT-29 cells assessed tumor cell growth at 10^-5 M; format: functional; set-up: scale not given: the % may be the effect or the level left

{"chemical.smiles": "CC1=NN(c2cccc(Cl)c2)C(=O)/C1=C\\c1cn(C(=O)c2c(Cl)cccc2Cl)c2ccccc12", "Activity [%]": 110.62}
{"chemical.smiles": "O=C1/C(=C\\c2cn(C(=O)c3ccccc3)c3ccccc23)c2ccccc2N1c1c(Cl)cccc1Cl", "Activity [%]": 103.4}
{"chemical.smiles": "CC1=NN(c2cccc(Cl)c2)C(=O)/C1=C\\c1cn(C(=O)c2ccc(Cl)cc2)c2ccccc12", "Activity [%]": 101.17}
{"chemical.smiles": "O=C1/C(=C\\c2ccccn2)c2ccccc2N1c1c(Cl)cccc1Cl", "Activity [%]": 10.75}
{"chemical.smiles": "O=C1/C(=C\\c2cn(C(=O)c3ccc(Cl)cc3)c3ccccc23)c2ccccc2N1C(=O)c1ccc(Cl)cc1", "Activity [%]": 70.4}
{"chemical.smiles": "O=C1/C(=C\\c2cn(Cc3ccccc3)c3ccccc23)c2ccccc2N1Cc1ccccc1", "Activity [%]": 90}
{"chemical.smiles": "O=C1Nc2ccccc2/C1=C/c1cn(C(=O)c2c(Cl)cccc2Cl)c2ccccc12", "Activity [%]": 69.6}

###

Catalogue of compounds with associated CC50
system: HCT-15; assay: Growth inhibition of human HCT15 cells; format: functional; settings: read-out: LC50 (the source's name)

{"chemical.smiles": "CC1=NN(c2cccc(Cl)c2)C(=O)/C1=C\\c1c(O)ccc2ccccc12", "system.tested": "HCT-15", "CC50": "> 100 µM"}
{"chemical.smiles": "O=C1Nc2ccccc2/C1=C/c1cn(C(=O)c2c(Cl)cccc2Cl)c2ccccc12", "system.tested": "HCT-15", "CC50": "> 100 µM"}
{"chemical.smiles": "CC1=NN(c2cccc(Cl)c2)C(=O)/C1=C\\C=C\\c1ccccc1", "system.tested": "HCT-15", "CC50": "> 100 µM"}
{"chemical.smiles": "O=C1/C(=C\\c2coc3ccccc3c2=O)c2ccccc2N1c1c(Cl)cccc1Cl", "system.tested": "HCT-15", "CC50": "> 100 µM"}
{"chemical.smiles": "O=C1/C(=C\\c2ccccn2)c2ccccc2N1c1c(Cl)cccc1Cl", "system.tested": "HCT-15", "CC50": "28.8 µM"}

###

system: SK-MEL-5; test: Growth inhibition of human SK-MEL-5 cells; assay type: functional
Catalogue of molecules with associated GI50
observation.type: GI50 (nM)

{"chemical.smiles": "CC1=NN(c2cccc(Cl)c2)C(=O)/C1=C\\c1c(O)ccc2ccccc12", "observation.type": "GI50", "inequality.operator": ">", "assay.result": 100000}
{"chemical.smiles": "O=C1/C(=C\\c2coc3ccccc3c2=O)c2ccccc2N1c1c(Cl)cccc1Cl", "observation.type": "GI50", "inequality.operator": "=", "assay.result": 2400}
{"chemical.smiles": "O=C1/C(=C\\c2ccccn2)c2ccccc2N1c1c(Cl)cccc1Cl", "observation.type": "GI50", "inequality.operator": "=", "assay.result": 1600}
{"chemical.smiles": "CC1=NN(c2cccc(Cl)c2)C(=O)/C1=C\\C=C\\c1ccccc1", "observation.type": "GI50", "inequality.operator": "=", "assay.result": 2200}
{"chemical.smiles": "O=C1Nc2ccccc2/C1=C/c1cn(C(=O)c2c(Cl)cccc2Cl)c2ccccc12", "observation.type": "GI50", "inequality.operator": "=", "assay.result": 7600}
